Assay: Volume of distribution in male Balb/c mouse at 1 mg/kg, iv by LC-MS/MS analysis
Assay type: ADME, organism-based
Details: in vivo
MEASURED_ATTRIBUTE: Vd (L/kg)

>>> measurement("CCCc1nn(C)c2c(Nc3ccc(O)cc3)nc(-c3ccc([N+](=O)[O-])o3)nc12")
1.69

###

Assay: Terminal half life in male Balb/c mouse at 30 mg/kg, po by LC-MS/MS analysis
Type: ADME, organism-based
Details: in vivo, read-out: beta t1/2 (converted)
MEASURED_ATTRIBUTE: half-life

>>> measurement("CCCc1nn(C)c2c(Nc3ccc(O)cc3)nc(-c3ccc([N+](=O)[O-])o3)nc12")
"21 min"

###

Test: Lipophilicity, logD of compound
Assay type: physicochemical
Conditions: octanol/water
MEASURED_ATTRIBUTE: logD

>>> measurement("CCCc1nn(C)c2c(Nc3ccc(O)cc3)nc(-c3ccc([N+](=O)[O-])o3)nc12")
2.92

###

Experiment: Cytotoxicity against mouse RAW264.7 cells incubated for 48 to 72 hrs by absorbance based assay
Format: toxicity, cell-based
MEASURED_ATTRIBUTE: IC50

>>> measurement("CCCc1nn(C)c2c(Nc3ccc(O)cc3)nc(-c3ccc([N+](=O)[O-])o3)nc12")
"> 100 µg/mL"

###

Test: Cmax in male Balb/c mouse at 30 mg/kg, po by LC-MS/MS analysis
Format: ADME, organism-based
Settings: in vivo
MEASURED_ATTRIBUTE: Cmax (ng/mL)

>>> measurement("CCCc1nn(C)c2c(Nc3ccc(O)cc3)nc(-c3ccc([N+](=O)[O-])o3)nc12")
2010

###

Measured log10 of MIC of individual entries
Tested on: Staphylococcus aureus
Test: Antibacterial activity against methicillin-resistant Staphylococcus aureus ATCC 15187 incubated for 24 hrs by Alamar blue staining based microdilution method
Type: functional
MEASURED_ATTRIBUTE: log10 of MIC (log10 of the value in µg/mL)

>>> measurement("CCCc1nn(C)c2c(NCc3ccncc3)nc(-c3ccc([N+](=O)[O-])o3)nc12")
0.00
>>> measurement("CCCc1nn(C)c2c(NCCCCO)nc(-c3ccc([N+](=O)[O-])o3)nc12")
-0.60
>>> measurement("CCCc1nn(C)c2c(NCCO)nc(-c3ccc([N+](=O)[O-])o3)nc12")
0.90
>>> measurement("CCCc1nn(C)c2c(N3CCC(=O)CC3)nc(-c3ccc([N+](=O)[O-])o3)nc12")
1.20
>>> measurement("CCCc1nn(C)c2c(NCCCCCO)nc(-c3ccc([N+](=O)[O-])o3)nc12")
-0.30
>>> measurement("CCCc1nn(C)c2c(Nc3ccccc3O)nc(-c3ccc([N+](=O)[O-])o3)nc12")
0.00
>>> measurement("CCCc1nn(C)c2c(NCc3cccnc3)nc(-c3ccc([N+](=O)[O-])o3)nc12")
0.60

###

Tested on: Staphylococcus aureus
Assay: Antibacterial activity against methicillin-resistant Staphylococcus aureus ATCC 15187 incubated for 24 hrs by Alamar blue staining based microdilution method
Format: functional
MEASURED_ATTRIBUTE: MIC

>>> measurement("CCCc1nn(C)c2c(N3CCN(c4ccccc4O)CC3)nc(-c3ccc([N+](=O)[O-])o3)nc12")
"> 32 µg/mL"
>>> measurement("CCCc1nn(C)c2c(Nc3ccc(Cl)cc3)nc(-c3ccc([N+](=O)[O-])o3)nc12")
"> 32 µg/mL"
>>> measurement("CCCc1nn(C)c2c(NC3CCOCC3)nc(-c3ccc([N+](=O)[O-])o3)nc12")
"> 32 µg/mL"
>>> measurement("CCCc1nn(C)c2c(Nc3ccc(OC)cc3)nc(-c3ccc([N+](=O)[O-])o3)nc12")
"> 32 µg/mL"
>>> measurement("CCCc1nn(C)c2c(NCCCN3CCOCC3)nc(-c3ccc([N+](=O)[O-])o3)nc12")
"> 32 µg/mL"
>>> measurement("CCCc1nn(C)c2c(NCCN3CCOCC3)nc(-c3ccc([N+](=O)[O-])o3)nc12")
"> 32 µg/mL"
>>> measurement("CCCc1nn(C)c2c(N3CCOCC3)nc(-c3ccc([N+](=O)[O-])o3)nc12")
"> 32 µg/mL"
>>> measurement("CCCc1nn(C)c2c(Nc3ccc(F)cc3)nc(-c3ccc([N+](=O)[O-])o3)nc12")
"0.25 µg/mL"
>>> measurement("CCCc1nn(C)c2c(N3CCN(c4ccncc4)CC3)nc(-c3ccc([N+](=O)[O-])o3)nc12")
"0.25 µg/mL"

###

Experiment: Clearance in male Balb/c mouse at 1 mg/kg, iv by LC-MS/MS analysis
Format: ADME, organism-based
Settings: in vivo
MEASURED_ATTRIBUTE: clearance (mL/min/kg)

>>> measurement("CCCc1nn(C)c2c(Nc3ccc(O)cc3)nc(-c3ccc([N+](=O)[O-])o3)nc12")
176

###

Test: AUC (0 to t) in male Balb/c mouse at 1 mg/kg, iv by LC-MS/MS analysis
Type: ADME, organism-based
Conditions: in vivo
MEASURED_ATTRIBUTE: AUC(0-t) (ng·h/mL)

>>> measurement("CCCc1nn(C)c2c(Nc3ccc(O)cc3)nc(-c3ccc([N+](=O)[O-])o3)nc12")
90.8

###

Assay: Solubility of compound in water
Assay type: physicochemical
MEASURED_ATTRIBUTE: solubility (µg/mL)

>>> measurement("CCCc1nn(C)c2c(Nc3ccc(O)cc3)nc(-c3ccc([N+](=O)[O-])o3)nc12")
1

###

Assay: AUC (0 to infinity) in male Balb/c mouse at 1 mg/kg, iv by LC-MS/MS analysis
Assay type: ADME, organism-based
Settings: in vivo
MEASURED_ATTRIBUTE: AUC(0-inf) (µg·h/mL)

>>> measurement("CCCc1nn(C)c2c(Nc3ccc(O)cc3)nc(-c3ccc([N+](=O)[O-])o3)nc12")
0.0948

###

Test: Lipophilicity, logP of compound
Format: physicochemical
Settings: octanol/water
MEASURED_ATTRIBUTE: logP

>>> measurement("CCCc1nn(C)c2c(Nc3ccc(O)cc3)nc(-c3ccc([N+](=O)[O-])o3)nc12")
2.92

###

Tested on: Staphylococcus aureus
Test: Antibacterial activity against methicillin-resistant Staphylococcus aureus ATCC 15187 incubated for 24 hrs by Alamar blue staining based microdilution method
Format: functional
MEASURED_ATTRIBUTE: MIC

>>> measurement("CCCc1nn(C)c2c(Nc3ccc(C(F)(F)F)cc3)nc(-c3ccc([N+](=O)[O-])o3)nc12")
"> 32 µg/mL"
>>> measurement("CCCc1nn(C)c2c(NCc3ccccc3)nc(-c3ccc([N+](=O)[O-])o3)nc12")
"> 32 µg/mL"
>>> measurement("CCCc1nn(C)c2c(Nc3ccc(OC(F)(F)F)cc3)nc(-c3ccc([N+](=O)[O-])o3)nc12")
"> 32 µg/mL"
